The sequences listed here are annotated with their PBM binding z-score.
# System: RARa:RXR (NR concentration 270 nM, RXRa partner concentration 90 nM)
# assay_summary: PBM binding z-score (relative to random genomic background probes); higher = stronger binding; sequences stand for … in GC…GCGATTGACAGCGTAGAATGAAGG
Hey, just send me the number, nothing else.

Use these answered entries as a reference point.
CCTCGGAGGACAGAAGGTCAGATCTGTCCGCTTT    1.98
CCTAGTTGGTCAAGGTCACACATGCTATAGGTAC    4.11

Exam item: For the sequence shown here, `CGAACTAGGTCAACGACAGTGAATCTCCGCACGC` , give the reported PBM binding z-score.
Marked response: 1.99

###

# Tested on: RARa:RXR (NR concentration 270 nM, RXRa partner concentration 90 nM)
# assay_summary: PBM binding z-score (relative to random genomic background probes); higher = stronger binding; sequences stand for … in GC…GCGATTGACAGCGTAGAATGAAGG
assay_endpoint: PBM binding z-score

Use these answered entries as a reference point.
TCTAGTTGGTCACGGAGGTCACACGCGACGGGTA    4.54
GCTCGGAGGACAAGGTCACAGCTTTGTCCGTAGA    4.35
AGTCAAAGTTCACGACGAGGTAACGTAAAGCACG    5
CAAAATAGGTCAAGGTCAAAGTCGGTTTGTGCCA    5.42
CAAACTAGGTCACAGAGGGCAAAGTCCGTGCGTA    3.86

Exam item: For the sequence shown here, `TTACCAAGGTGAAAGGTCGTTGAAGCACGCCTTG` , give the reported PBM binding z-score.
Marked response: 6.52

Exam item: And for `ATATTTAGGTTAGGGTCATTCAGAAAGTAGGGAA` ?
Marked response: 4.64

###

# System: RARg homodimer (NR concentration 270 nM)
# assay_summary: PBM binding z-score (relative to random genomic background probes); higher = stronger binding; sequences stand for … in GC…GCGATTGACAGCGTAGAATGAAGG
assay_endpoint: PBM binding z-score
Hey, just send me the number, nothing else.

Use these answered entries as a reference point.
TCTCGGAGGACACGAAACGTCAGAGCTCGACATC    1.27
CCTACTGGGCAAAAAAGGTCATTGATGCCGATAA    4.11
TCTGCTAGGTCAGTTGGGCAGCTAACGAGCTGCC    3.42

Turning now to a further sequence:
Exam item: For the sequence shown here, `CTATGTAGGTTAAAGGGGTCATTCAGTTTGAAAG` , give the reported PBM binding z-score.
Marked response: 4.06

###

# System: RARg:RXRa (NR concentration 270 nM, RXRa partner concentration 90 nM)
# assay_summary: PBM binding z-score (relative to random genomic background probes); higher = stronger binding; sequences stand for … in GC…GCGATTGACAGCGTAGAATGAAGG
# cutoff 5 applies to PBM binding z-score; >= gives met, < gives not met

A selection of reference data follows.
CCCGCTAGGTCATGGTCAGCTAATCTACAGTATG    not met
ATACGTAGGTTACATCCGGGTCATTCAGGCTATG    not met
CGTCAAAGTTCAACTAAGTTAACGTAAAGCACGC    met

Exam item: Is reported PBM binding z-score greater than or equal to 5 here: `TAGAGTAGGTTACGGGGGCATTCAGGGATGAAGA`
Marked response: not met

Exam item: And for `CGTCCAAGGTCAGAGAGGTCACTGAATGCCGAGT` ?
Marked response: met

Exam item: And for `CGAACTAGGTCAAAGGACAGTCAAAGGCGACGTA` ?
Marked response: not met

Exam item: And for `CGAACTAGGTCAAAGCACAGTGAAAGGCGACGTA` ?
Marked response: not met
